# protocol-text: Probe fluorescence ratio response to arachidonic acid relative to ADIFAB2
# Assay type: binding
# experimental-parameters: arachidonic acid; response relative to ADIFAB2
# Excerpt: In an alternate preferred embodiment, the protein is rI-FABP that has Ala substituted for Leu at position 72 (rI-FABP-L72A) with the resulting probe named ADIFAB2. […] ADIFAB2 also has an altered spectral response, making it especially useful for measurements of FFAu in blood samples (Apple et al, Clinical Proteomics, (2004) 1:41-44, U.S. patent application Ser. No. 10/670,958). […] The baseline value for this ratio, measured in the absence of analyte, is designated R0. […]
measured-metric: DR/DR AA
# answer = number (no unit)

**Query** Specify measured DR/DR AA for 115T3, 72A (protein, listed as Rattus norvegicus, PEPTIDE (1)...(131) wild-type rat intestinal fatty acid binding protein) AFDGTWKVDRNENYEKFMEKMGINVVKRKLGAHDNLKLTITQEGNKFTVKESSNFRNIDVVFELGVDFAYSAADGTELTGTWTMEGNKLVGKFKRVDNGKELIAVREISGNELITTYTYEGVEAKRIFKKE .
**Result** 0.57

**Query** Please report the measured DR/DR AA for 49D, 72A (protein, listed as Rattus norvegicus, PEPTIDE (1)...(131) wild-type rat intestinal fatty acid binding protein) AFDGTWKVDRNENYEKFMEKMGINVVKRKLGAHDNLKLTITQEGNKFTDKESSNFRNIDVVFELGVDFAYSAADGTELTGTWTMEGNKLVGKFKRVDNGKELIAVREISGNELIQTYTYEGVEAKRIFKKE
**Result** 0.308
